Test system: Streptococcus pneumoniae
Measurement Notes: Antibacterial activity against MLSB-resistant Streptococcus pneumoniae 700906 expressing erm by broth-microdilution method
Format: functional
Recorded Metric: MIC

Smiles Data: CC[C@H]1OC(=O)[C@H](C)[C@H]2OC/C(=N\Oc3cccc(-c4ccccc4)c3)CCO[C@](C)(C[C@@H](C)C(=O)[C@H](C)[C@H]3NC(=O)O[C@@]31C)[C@H](O[C@@H]1O[C@H](C)C[C@H](N(C)C)[C@H]1O)[C@H]2C
Test System: Streptococcus pneumoniae
MIC: 2 µg/mL
//
Smiles Data: CC[C@H]1OC(=O)[C@H](C)[C@H]2OC/C(=N\OCCCCc3ccccc3)CCO[C@](C)(C[C@@H](C)C(=O)[C@H](C)[C@H]3NC(=O)O[C@@]31C)[C@H](O[C@@H]1O[C@H](C)C[C@H](N(C)C)[C@H]1O)[C@H]2C
Test System: Streptococcus pneumoniae
MIC: 4 µg/mL
//
Smiles Data: CC[C@H]1OC(=O)[C@H](C)[C@H]2OC/C(=N\Oc3ccccc3)CCO[C@](C)(C[C@@H](C)C(=O)[C@H](C)[C@H]3NC(=O)O[C@@]31C)[C@H](O[C@@H]1O[C@H](C)C[C@H](N(C)C)[C@H]1O)[C@H]2C
Test System: Streptococcus pneumoniae
MIC: 32 µg/mL

# next compound below
Short answer on Streptococcus pneumoniae for "CC[C@H]1OC(=O)[C@H](C)[C@H]2OC/C(=N/OCc3ccccc3)CCO[C@](C)(C[C@@H](C)C(=O)[C@H](C)[C@H]3NC(=O)O[C@@]31C)[C@H](O[C@@H]1O[C@H](C)C[C@H](N(C)C)[C@H]1O)[C@H]2C" , MIC: > 64 µg/mL

---

Tested on: Moraxella catarrhalis
Measurement Notes: Antibacterial activity against Moraxella catarrhalis by broth-microdilution method
Assay type: functional
Listed compounds paired with reported MIC
Quick note: give the figure in mg/L, leave out the unit.

Reference set (4 entries):
Smiles Data: CC[C@H]1OC(=O)[C@H](C)[C@H]2OC/C(=N\Oc3ccc(-c4ccccc4)cc3)CCO[C@](C)(C[C@@H](C)C(=O)[C@H](C)[C@H]3NC(=O)O[C@@]31C)[C@H](O[C@@H]1O[C@H](C)C[C@H](N(C)C)[C@H]1O)[C@H]2C
MIC (mg/L): 1
--
Smiles Data: CC[C@H]1OC(=O)[C@H](C)[C@H]2OC/C(=N\Oc3cccc(-c4ccccc4)c3)CCO[C@](C)(C[C@@H](C)C(=O)[C@H](C)[C@H]3NC(=O)O[C@@]31C)[C@H](O[C@@H]1O[C@H](C)C[C@H](N(C)C)[C@H]1O)[C@H]2C
MIC (mg/L): 0.125
--
Smiles Data: CC[C@H]1OC(=O)[C@H](C)[C@H]2OC/C(=N\Oc3ccc4ccccc4c3)CCO[C@](C)(C[C@@H](C)C(=O)[C@H](C)[C@H]3NC(=O)O[C@@]31C)[C@H](O[C@@H]1O[C@H](C)C[C@H](N(C)C)[C@H]1O)[C@H]2C
MIC (mg/L): 0.25
--
Smiles Data: CC[C@H]1OC(=O)[C@H](C)[C@H]2OC/C(=N/OCc3ccccc3)CCO[C@](C)(C[C@@H](C)C(=O)[C@H](C)[C@H]3NC(=O)O[C@@]31C)[C@H](O[C@@H]1O[C@H](C)C[C@H](N(C)C)[C@H]1O)[C@H]2C
MIC (mg/L): 0.125

Would you kindly look at the next entry?
Kindly note the recorded MIC for "CC[C@H]1OC(=O)[C@H](C)[C@H]2OC/C(=N\OCCCCc3ccccc3)CCO[C@](C)(C[C@@H](C)C(=O)[C@H](C)[C@H]3NC(=O)O[C@@]31C)[C@H](O[C@@H]1O[C@H](C)C[C@H](N(C)C)[C@H]1O)[C@H]2C" , which is 0.25
